Cited source: PubChem BioAssay AID1259415

protocol_details: qHTS Assay for inhibitors of the human cytomegalovirus (HCMV); also: % is scaled to controls: 0 for no effect and ±100 for the full control effect
cond: HFF cells, HCMV-luciferase reporter, 72 h; at 57.5 µM; active compounds read low
In all, about 410,000 compounds went through this assay and about 18,000 (4.4%) were called active. Another 7% or so got no clear call; they are omitted. This is one part of a sample in which actives are shown more often than they occur.
Listed below: activity change, negative = inhibition values for each entry.
Give a bare numeral; the unit % is implied.

CCOC(=O)C1(Cc2cccc(OC)c2)CCN(C(C)CC(C)(C)O)CC1 (stereo not given) : 14
Cc1ccc(CNS(=O)(=O)c2ccc(C(=O)N(C)C)s2)cc1 : 1.6
COc1cccc(NC(=O)N(Cc2cn(C)c3ccccc23)C2CCCCCC2)c1 : -105
CCOC(=O)C1(Cc2cccc(OC)c2)CCN(C(C)COC)CC1 (stereo not given) : -7.28
CCc1nccn1S(=O)(=O)c1cc(Br)ccc1Br : 3.85

Summary for this compound, Cc1ccc(C(=O)N2CCc3cc(CNC(=O)c4ccc(Br)cc4)ccc32)cc1 : activity change, negative = inhibition is -17.7

Summary for this compound, CCn1cc(C(=O)N2CCN(c3cc(Cl)ccc3C)CC2)c(=O)c2cc(S(=O)(=O)N3CCCC3)ccc21 : activity change, negative = inhibition is -11.4

====

protocol_details: qHTS Assay for inhibitors of the human cytomegalovirus (HCMV); also: % is scaled to controls: 0 for no effect and ±100 for the full control effect
cond: HFF cells, HCMV-luciferase reporter, 72 h; at 57.5 µM; active compounds read low
Out of some 410,000 compounds screened, about 18,000 (4.4%) were called active. Not shown: some 7% with an inconclusive outcome. The sample as a whole holds a higher share of actives than the screen did.
measured_quantity: activity change, negative = inhibition (%)
Give a bare numeral; the unit % is implied.

# count of solved cases: 5
COc1ccc(CNC(=O)c2cc3c(-c4ccccc4F)nn(C)c3s2)c(OC)c1 : -64.7
O=C(N/N=C/c1ccccn1)c1cccc(NC(=O)c2ccc(Cl)cc2)c1 : -69.8
O=C(NNS(=O)(=O)c1ccc(Cl)cc1)C1CCN(Cc2ccccc2)CC1 : 14.7
C=CCSC1=C(C#N)C(c2cc(Br)c(O)c(OC)c2)CC(=O)N1 (stereo unspecified) : -10.5
Cc1ccc(-c2nc(Cn3c(=O)cc(-c4ccccc4)c4c(C)nn(C)c43)c(C)o2)cc1 : -9.59

Summary for this molecule, COc1cc(/C=C(\C#N)C(=O)Nc2ccc3ccccc3c2)c([N+](=O)[O-])cc1OC : activity change, negative = inhibition is 16.2

Summary for this molecule, CN(c1ccccc1)S(=O)(=O)c1cc(C(=O)OCC(=O)N2CCN(C(=O)c3ccco3)CC2)ccc1Cl : activity change, negative = inhibition is -12

Summary for this molecule, CN(c1ccccc1)S(=O)(=O)c1ccc(C(=O)N2CCN(c3ccccc3Cl)CC2)cc1 : activity change, negative = inhibition is -25.5

Summary for this molecule, CN(CC(=O)Nc1ccccc1C(F)(F)F)C(=O)Cc1ccccc1F : activity change, negative = inhibition is -12.2

Summary for this molecule, CCOC(=O)c1c(S(=O)(=O)NCC(=O)Nc2ccc(Cl)c(C(F)(F)F)c2)c(C)n(C)c1C : activity change, negative = inhibition is -27.1

Summary for this molecule, S=C(NCc1ccc(Cl)cc1)NC12CC3CC(CC(C3)C1)C2 : activity change, negative = inhibition is -100

Summary for this molecule, COc1ccc(CNC(=O)c2cc3c(=O)[nH]c4ccc(C)cc4c3s2)c(OC)c1 : activity change, negative = inhibition is -17.4

Summary for this molecule, COc1ccc(CNC(=O)/C(C#N)=C/c2cccc(OC)c2OC)cc1 : activity change, negative = inhibition is -83.6

Summary for this molecule, COc1ccccc1C(=O)NC(=S)NC12CC3CC(CC(C3)C1)C2 : activity change, negative = inhibition is -36.1

Summary for this molecule, Cc1cc(=O)oc2cc(OC(C)C(=O)Nc3ccc(N4CCOCC4)cc3)ccc12 (stereo unspecified) : activity change, negative = inhibition is 5.98

====

protocol_details: qHTS Assay for inhibitors of the human cytomegalovirus (HCMV); also: % is scaled to controls: 0 for no effect and ±100 for the full control effect
cond: HFF cells, HCMV-luciferase reporter, 72 h; at 57.5 µM
About 18,000 (4.4%) of roughly 410,000 compounds were called active. About 7% were inconclusive and are not listed. Cut-off read from the data, not from the text of the source: active = activity change below about -60%; inconclusive = no clear call, values can overlap the other calls; inactive = above about -39%. For the sample, actives were picked, then their nearest neighbours and some compounds at random.
Result category, one only: True (active), False (inactive)

CCOc1cc(-c2cc(-c3ccc(NC(C)=O)cc3)nc(N)c2C#N)ccc1O : True
CCCCN(C)CCCNC(=O)CN1N=C(c2ccc(OC)cc2)CCC1=O : False
CCOC(=O)CN(C(=O)COc1nc(-c2ccccc2)cc(C)c1C#N)c1ccc(F)cc1 : False
Cc1ccc(-c2cc(C(F)(F)F)c(C#N)c(SCC(=O)Nc3ccccc3)n2)cc1 : False

Field: next compound
Test call for this compound, please: CCCS(=O)(=O)NC(=O)C1(C)CCCN(C(=O)c2cc(C)on2)C1 (stereo not given)
False

====

protocol_details: qHTS Assay for inhibitors of the human cytomegalovirus (HCMV); also: % is scaled to controls: 0 for no effect and ±100 for the full control effect
cond: HFF cells, HCMV-luciferase reporter, 72 h; at 57.5 µM
Among all 410,000 compounds or so, about 18,000 (4.4%) were called active. Not shown: some 7% with an inconclusive outcome. Rule as the data show it: active = activity change below about -60%; inconclusive = no clear call, values can overlap the other calls; inactive = above about -39%. What follows is part of a selection rich in actives, with near analogues and random picks from the rest.
Result category, one only: 1 = active, 0 = inactive

Cc1cc2c(cc1C)C(c1cccc(OC(C)C)c1)CC(=O)N2 (stereo not given) : 0

Test call for this molecule, please: CC(=O)N1CCCc2cc(S(=O)(=O)N3CCC(C(=O)NC4CCCCC4)CC3)ccc21
0

Test call for this molecule, please: COCCCNC(=S)NNC(=O)C(O)(c1ccccc1)c1ccccc1
0

Test call for this molecule, please: CC(=O)N1c2ccc(S(=O)(=O)N3CCCC(C(=O)NCc4ccc(Cl)cc4)C3)cc2CC1C (stereo not given)
1

Test call for this molecule, please: COc1ccccc1N1CC(C(=O)Nc2nnc(SCC(=O)NC(C)C)s2)CC1=O (stereo not given)
0

Test call for this molecule, please: COc1ccccc1C1C2=C(COC2=O)Nc2cc3c(cc21)OCO3 (stereo not given)
1

Test call for this molecule, please: CC(=O)N1c2ccc(S(=O)(=O)N3CCCC(C(=O)Nc4cccc(F)c4)C3)cc2CC1C (stereo not given)
0

Test call for this molecule, please: COc1ccc(-n2c(=O)c3ccccc3n(Cc3ccccc3Cl)c2=O)cc1
0

Test call for this molecule, please: O=C1CC(c2ccc(F)cc2F)c2cc3c(cc2N1)OCO3 (stereo not given)
0

====

protocol_details: qHTS Assay for inhibitors of the human cytomegalovirus (HCMV); also: % is scaled to controls: 0 for no effect and ±100 for the full control effect
cond: HFF cells, HCMV-luciferase reporter, 72 h; at 57.5 µM; active compounds read low
The whole screen tested about 410,000 compounds, of which about 18,000 (4.4%) were called active. Roughly 7% stayed inconclusive and do not appear here. Only a selection was taken, and actives are over-represented in it overall.
Listed below: activity change, negative = inhibition values for each entry.
Give a bare numeral; the unit % is implied.

CCOC(=O)Cc1ccc(NC(=O)Nc2c[nH]c(=O)[nH]c2=O)cc1 : 8.88
CN(CCc1cnn(C)c1)Cc1cn(C)nc1-c1ccccc1F : 5.69
CC(C)c1nnc(NC(=O)COC(=O)/C=C/c2ccc([N+](=O)[O-])cc2)s1 : 28.8
COc1ccc(N2C(=O)C(CC(=O)Nc3ccccc3)N(Cc3ccc(OC)c(OC)c3)C2=O)cc1 (stereo not given) : 38.3

Please turn your attention to the following entry.
Summary for this compound, CCOc1ccc(N2C(=O)CC(N(CCc3ccc(OC)c(OC)c3)C(=S)Nc3ccccc3)C2=O)cc1 (stereo not given) : activity change, negative = inhibition is -67.5

====

protocol_details: qHTS Assay for inhibitors of the human cytomegalovirus (HCMV); also: % is scaled to controls: 0 for no effect and ±100 for the full control effect
cond: HFF cells, HCMV-luciferase reporter, 72 h; at 57.5 µM
Out of some 410,000 compounds screened, about 18,000 (4.4%) were called active. Inconclusive results (about 7%) are left out. No stated cut-off is given here; in the data, active means activity change below about -60%; inconclusive means no clear call, values can overlap the other calls; inactive means above about -39%. Shown is part of a subset that was picked to be rich in actives.
Result category, one only: active, inactive

Example entries and their recorded answers appear below.
CCOc1cc(C(=O)N2CCc3cc(OC)c(OC)cc3C2)ccc1OC(F)F : active
COc1ccc(CCNC(=O)c2cc(=O)c3c(C)cc(C)cc3o2)cc1OC : inactive
COC(=O)C(C)C1Sc2ccccc2NC1=O (stereo unspecified) : inactive
COc1ccc(C(=O)NC2CC(C)(C)Cc3c2cnn3-c2ccccc2)c(OC)c1 (stereo unspecified) : active
CC(C)Oc1ccc(CNC(=O)C2CCN(c3nc4ccccc4n(C)c3=O)CC2)cc1 : inactive
Cc1ccccc1-c1cc(C(=O)NCc2cccs2)n(CC2CC(c3cccnc3)=NO2)n1 (stereo unspecified) : inactive
O=C(Cc1ccccc1)N1CCN(C2CCCCCC2)CC1 : inactive
CCOC(=O)c1ccc(CSc2nnc3cc(C)c4ccccc4n23)cc1 : inactive
Cn1ccc(=Nc2ccc(NC(=O)c3ccc(N=c4ccn(C)c5ccc([N+](=O)[O-])cc45)cc3)cc2)cc1 : active
CCOc1ccc(C(=O)NCC(=O)N2CCCCCCC2)cc1OCC : inactive

Test call for this compound, please: CCC(CC)c1nn2cc(-c3ccccc3)nc2s1
inactive

Test call for this compound, please: COc1cc(C(CC(=O)NCCC(C)C)N2Cc3ccccc3C2=O)cc(OC)c1OC (stereo unspecified)
inactive

Test call for this compound, please: COc1ccc(C2Sc3ccccc3NC3=C2C(=O)c2ccccc23)c(OC)c1OC (stereo unspecified)
active

Test call for this compound, please: COc1ccc(-c2n[nH]c3c2CN(C(=O)c2ccc(F)cc2)CC3)cc1
inactive
